The following compounds are listed with their measured pEC50 values.
# System: Influenza B virus
# experimental.details: Antiviral activity against influenza B virus in MDCK cells assessed as reduction of virus-induced cytopathicity by MTS method
# Type: functional, organism-based
pEC50: −log10 of the molar value.

Here is how some compounds turned out for pEC50.
[[record]]
compound = "Cc1cc(C)cc(S(=O)(=O)c2c(C(=O)NCC(N)=O)[nH]c3ccc(Cl)c(F)c23)c1"
system_name = "Influenza B virus"
measurement_kind = "pEC50"
reported = "< 5.40"

[[record]]
compound = "NC(=O)c1ncn([C@@H]2O[C@H](CO)[C@@H](O)[C@H]2O)n1"
system_name = "Influenza B virus"
measurement_kind = "pEC50"
reported = 5.32

[[record]]
compound = "Cc1cc(C)cc(S(=O)(=O)c2c(C(=O)NC(C)CC(N)=O)[nH]c3ccc(Cl)c(F)c23)c1 (stereo not drawn)"
system_name = "Influenza B virus"
measurement_kind = "pEC50"
reported = "< 5.40"

[[record]]
compound = "Cc1cc(C)cc(S(=O)(=O)c2c(C(=O)NCCC(N)=O)[nH]c3ccc([N+](=O)[O-])cc23)c1"
system_name = "Influenza B virus"
measurement_kind = "pEC50"
reported = "< 4.70"

[[record]]
compound = "Cc1cc(C)cc(S(=O)(=O)c2c(C(=O)NC(C)CS(N)(=O)=O)[nH]c3ccc([N+](=O)[O-])cc23)c1 (stereo not drawn)"
system_name = "Influenza B virus"
measurement_kind = "pEC50"
reported = "< 5.40"


Entry under review: Cc1cc(C)cc(S(=O)(=O)c2c(C(=O)NC(C)C(N)=O)[nH]c3ccc([N+](=O)[O-])cc23)c1 (stereo not drawn) . Reported pEC50?
< 4.70

Quick one: pEC50 for Cc1cc(C)cc(S(=O)(=O)c2c(C(=O)NNC(C)C)[nH]c3ccc(Cl)cc23)c1 ?
< 4.70

Endpoint output: pEC50 of Cc1cc(C)cc(S(=O)(=O)c2c(C(=O)NC(C)CS(N)(=O)=O)[nH]c3ccc(Cl)c(F)c23)c1 (stereo not drawn) . Value?
< 5.40

----------
# System: Vesicular stomatitis virus
# experimental.details: Antiviral activity against VSV in human HEL cells assessed as protection against virus-induced cytopathicity
# Type: functional, organism-based
pEC50: −log10 of the molar value.
measurement.kind: pEC50

[[record]]
compound = "Cc1cc(C)cc(S(=O)(=O)c2c(C(=O)NC(C)CS(N)(=O)=O)[nH]c3ccc([N+](=O)[O-])cc23)c1 (configuration not stated)"
system_name = "Vesicular stomatitis virus"
reported = "< 4.70"

[[record]]
compound = "Cc1cc(C)cc(S(=O)(=O)c2c(C(=O)NC(C)C(N)=O)[nH]c3ccc(Br)cc23)c1 (configuration not stated)"
system_name = "Vesicular stomatitis virus"
reported = "< 5.40"

[[record]]
compound = "Cc1cc(C)cc(S(=O)(=O)c2c(C(=O)NC(C)CC(N)=O)[nH]c3ccc(Cl)cc23)c1 (configuration not stated)"
system_name = "Vesicular stomatitis virus"
reported = "< 4.70"

[[record]]
compound = "NC(=O)c1ncn([C@@H]2O[C@H](CO)[C@@H](O)[C@H]2O)n1"
system_name = "Vesicular stomatitis virus"
reported = 3.90

[[record]]
compound = "Cc1cc(C)cc(S(=O)(=O)c2c(C(=O)NCCC(N)=O)[nH]c3ccc(Br)cc23)c1"
system_name = "Vesicular stomatitis virus"
reported = "< 5.40"

[[record]]
compound = "Cc1cc(C)cc(S(=O)(=O)c2c(C(=O)NCCS(N)(=O)=O)[nH]c3ccc(Cl)c(F)c23)c1"
system_name = "Vesicular stomatitis virus"
reported = "< 4.70"

[[record]]
compound = "Cc1cc(C)cc(S(=O)(=O)c2c(C(=O)NCCS(N)(=O)=O)[nH]c3ccc(Cl)cc23)c1"
system_name = "Vesicular stomatitis virus"
reported = "< 5.40"

[[record]]
compound = "Cc1cc(C)cc(S(=O)(=O)c2c(C(=O)NC(C)CC(N)=O)[nH]c3ccc([N+](=O)[O-])cc23)c1 (configuration not stated)"
system_name = "Vesicular stomatitis virus"
reported = "< 5.40"

[[record]]
compound = "O=c1[nH]c(=O)n([C@H]2C[C@H](O)[C@@H](CO)O2)cc1/C=C/Br"
system_name = "Vesicular stomatitis virus"
reported = "< 3.60"

[[record]]
compound = "Cc1cc(C)cc(S(=O)(=O)c2c(C(=O)NC(C)C(N)=O)[nH]c3ccc([N+](=O)[O-])cc23)c1 (configuration not stated)"
system_name = "Vesicular stomatitis virus"
reported = "< 4.70"


Recorded pEC50 for Cc1cc(C)cc(S(=O)(=O)c2c(C(=O)NC(C)CC(N)=O)[nH]c3ccc(Cl)c(F)c23)c1 (configuration not stated) with Vesicular stomatitis virus, please?
< 4.70

I'm curious: which pEC50 was measured for Cc1cc(C)cc(S(=O)(=O)c2c(C(=O)NCC(N)=O)[nH]c3ccc([N+](=O)[O-])cc23)c1 tested on Vesicular stomatitis virus?
< 4.70

Recall the recorded pEC50 for Cc1cc(C)cc(S(=O)(=O)c2c(C(=O)NC(C)CS(N)(=O)=O)[nH]c3ccc(Cl)cc23)c1 (configuration not stated) with Vesicular stomatitis virus and state it.
< 5.40

Form field: pEC50 recorded for Cc1cc(C)cc(S(=O)(=O)c2c(C(=O)NCC(N)=O)[nH]c3ccc(Cl)cc23)c1 with Vesicular stomatitis virus (enter value)
< 4.00

Checklist item: pEC50 tested on Vesicular stomatitis virus, entry Cc1cc(C)cc(S(=O)(=O)c2c(C(=O)NC(C)C(N)=O)[nH]c3ccc(Cl)c(F)c23)c1 (configuration not stated) , value?
< 4.70

Write down the reported pEC50 of Cc1cc(C)cc(S(=O)(=O)c2c(C(N)=O)[nH]c3ccc(Cl)c(F)c23)c1 , test system: Vesicular stomatitis virus.
< 4.70

Param readout = pEC50; param system = Vesicular stomatitis virus; param query = Cc1cc(C)cc(S(=O)(=O)c2c(C(=O)NNC(C)C)[nH]c3ccc(Cl)cc23)c1 ; response: value
< 4.00
